Consider the following binders; for each one, report its SPOT peptide array binding signal intensity.
Target: CaSla1-D3
Assay: SPOT peptide array binding signal intensity (averaged, normalized) (arbitrary units (background-subtracted, floor 0; scale differs between SH3 domains)); higher = stronger binding of the SH3 domain to the peptide

[
  {
    "binder": "DRIRMFIRFPKFLLE",
    "result": 182
  },
  {
    "binder": "RFKRHRLEFPFNESE",
    "result": 4
  },
  {
    "binder": "NMLSRPRLAKLPSIR",
    "result": 254
  },
  {
    "binder": "GRSRLFPHSPLGRSS",
    "result": "≤ 0"
  },
  {
    "binder": "PKRRAPPPVPKKPSS",
    "result": 1040
  }
]

State the recorded SPOT peptide array binding signal intensity for every item in the following list.
1. RRSKSLPTTPGIRSG
2. VRTRRRPPPPPIPST
3. FFRRSELYLPNSSKA
4. DHPKGPPPPPPPDEK
5. ANNQGPPNLPARDKS
6. GQYRRTIVIPRRFFT

A:
1. ≤ 0
2. 296
3. ≤ 0
4. 2.75
5. ≤ 0
6. 89.8

State the recorded SPOT peptide array binding signal intensity for every item in the following list.
1. ISNFVPPNLPMRRFK
2. NAGIRPKFILALNDE
3. LKRITSPPLPPRADS
4. LPPPPPPPPPPPLPQ

A:
1. 250
2. 10.8
3. 2
4. 0.5
